Cited source for all entries: the supplement of paper PMC3334620

Molecular target: Ylr278c (UniProt Q05854)
Sequence (Q05854 whole entry): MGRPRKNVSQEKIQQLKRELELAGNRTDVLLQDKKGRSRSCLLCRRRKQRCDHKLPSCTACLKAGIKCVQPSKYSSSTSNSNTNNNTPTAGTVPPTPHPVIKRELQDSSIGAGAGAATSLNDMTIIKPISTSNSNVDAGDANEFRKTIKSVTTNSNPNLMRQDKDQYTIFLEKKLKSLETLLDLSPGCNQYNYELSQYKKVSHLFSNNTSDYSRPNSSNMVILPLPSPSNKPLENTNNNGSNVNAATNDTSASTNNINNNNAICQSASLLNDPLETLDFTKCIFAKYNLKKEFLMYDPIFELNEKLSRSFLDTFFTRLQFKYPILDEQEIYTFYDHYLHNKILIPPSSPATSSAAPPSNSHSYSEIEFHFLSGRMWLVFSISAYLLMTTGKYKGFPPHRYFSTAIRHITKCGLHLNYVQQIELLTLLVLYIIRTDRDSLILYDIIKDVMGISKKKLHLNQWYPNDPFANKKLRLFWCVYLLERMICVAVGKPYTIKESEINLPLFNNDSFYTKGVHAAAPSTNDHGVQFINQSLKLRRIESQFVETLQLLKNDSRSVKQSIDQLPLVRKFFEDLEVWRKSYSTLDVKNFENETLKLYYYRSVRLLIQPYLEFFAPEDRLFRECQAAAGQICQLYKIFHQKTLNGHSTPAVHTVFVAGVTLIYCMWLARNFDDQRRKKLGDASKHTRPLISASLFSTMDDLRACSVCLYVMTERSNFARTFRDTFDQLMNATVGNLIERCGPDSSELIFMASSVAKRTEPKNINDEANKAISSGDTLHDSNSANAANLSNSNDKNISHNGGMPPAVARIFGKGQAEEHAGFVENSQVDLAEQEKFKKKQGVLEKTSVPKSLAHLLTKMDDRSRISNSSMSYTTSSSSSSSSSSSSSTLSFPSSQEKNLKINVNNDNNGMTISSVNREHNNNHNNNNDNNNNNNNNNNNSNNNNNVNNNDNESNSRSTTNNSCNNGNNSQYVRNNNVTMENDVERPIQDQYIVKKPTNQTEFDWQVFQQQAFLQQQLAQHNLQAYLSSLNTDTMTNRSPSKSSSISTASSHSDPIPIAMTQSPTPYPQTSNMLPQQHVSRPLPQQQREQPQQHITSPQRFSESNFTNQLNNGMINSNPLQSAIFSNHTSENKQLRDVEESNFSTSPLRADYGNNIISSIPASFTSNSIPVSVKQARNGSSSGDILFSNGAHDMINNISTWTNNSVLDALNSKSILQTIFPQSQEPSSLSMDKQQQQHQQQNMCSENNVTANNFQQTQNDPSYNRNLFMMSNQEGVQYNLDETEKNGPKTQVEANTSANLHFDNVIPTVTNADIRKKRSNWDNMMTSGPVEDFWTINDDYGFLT
Test: PBM E-score (8-mer binding enrichment) (E-score (-0.5 to 0.5)); higher = stronger / more preferred TF binding
Conditions: protein concentration: 200 nM; construct: GST-DNA-binding domain
Over roughly 33,000 sequences, “E-score (-0.5 to 0.5)” has its median near -0.054; the highest 2% begin near 0.39. The list comes from a sample in which the highest values are over-represented; it also holds close analogues and randomly drawn sequences.
Use 0.2 as the dividing line for PBM E-score, with the line itself on the condition met side and lower values as condition not met.

Worked examples, 10 sequences total:
Entry ACTCCGTG : is its PBM E-score no less than 0.2?
condition met

Entry CCTCCGTC : is its PBM E-score no less than 0.2?
condition met

Entry GATACCTA : is its PBM E-score no less than 0.2?
condition not met

Entry CTCTCTTA : is its PBM E-score no less than 0.2?
condition not met

Entry GCTATAGA : is its PBM E-score no less than 0.2?
condition not met

Entry GCCTCGGA : is its PBM E-score no less than 0.2?
condition met

Entry AAATCGGG : is its PBM E-score no less than 0.2?
condition met

Entry ATGAGGAG : is its PBM E-score no less than 0.2?
condition not met

Entry ATTTTGGA : is its PBM E-score no less than 0.2?
condition not met

Entry AGGGGATG : is its PBM E-score no less than 0.2?
condition not met

Okay, now this sequence:
Entry TATGTAAA : is its PBM E-score no less than 0.2?
condition not met
